Listed below: Cmax values for each entry.
Experiment: Pharmacokinetics of tramadol and O-desmethyl tramadol in SD rats with or without crizotinib
Conditions: male, Sprague-Dawley, rat, serum, po, 20 mg/kg, Cmax, Group D: crizotinib 45 mg/kg for 7 days, then single 20 mg/kg tramadol
Text: Ultra-performance liquid chromatography-tandem mass spectrometry (UPLC-MS/MS) was utilized to measure the concentration of both tramadol and O-desmethyl tramadol. Separation was achieved using a Waters Acquity UPLC BEH C18 column, with dimensions of 2.1 mm × 50 mm and 1.7-µm particle size (Waters Corp., Milford, MA, USA), and quantitation was completed using a Waters XEVO TQD triple quadruple mass spectrometer. […]
QUANTITY_MEASURED: Cmax

COc1cccc(C2(O)CCCCC2CN(C)C)c1 (centres unmarked) [Tramadol, tramadol] : 294 ng/mL
CN(C)C[C@H]1CCCC[C@]1(O)c1cccc(O)c1 [O-desmethyl tramadol] : 182 ng/mL

====

Target: tramadol metabolism in rat liver microsomes (RLM)
Test: Liver microsomal incubation assay: inhibition of tramadol metabolism (O-desmethyl tramadol production) in RLM
Details: RLM; Lineweaver-Burk; crizotinib 0, 4, 8, 16 µM; tramadol 15-120 µM
pKi: −log10 of the molar value.
QUANTITY_MEASURED: pKi

C[C@@H](Oc1cc(-c2cnn(C3CCNCC3)c2)cnc1N)c1c(Cl)ccc(F)c1Cl : 5.38

====

Listed below: Vd/F values for each entry.
Experiment: Pharmacokinetics of tramadol and O-desmethyl tramadol in SD rats with or without crizotinib
Settings: male, Sprague-Dawley, rat, serum, po, 20 mg/kg, Vz/F, Group B: 20 mg/kg tramadol with crizotinib 45 mg/kg single dose
QUANTITY_MEASURED: Vd/F (L/kg)

COc1cccc(C2(O)CCCCC2CN(C)C)c1 (centres unmarked) [Tramadol, tramadol] : 154
CN(C)C[C@H]1CCCC[C@]1(O)c1cccc(O)c1 [O-desmethyl tramadol] : 170

====

Test: Pharmacokinetics of tramadol and O-desmethyl tramadol in SD rats with or without crizotinib
Settings: male, Sprague-Dawley, rat, serum, po, 20 mg/kg, Tmax, Group D: crizotinib 45 mg/kg for 7 days, then single 20 mg/kg tramadol
QUANTITY_MEASURED: Tmax (min)

COc1cccc(C2(O)CCCCC2CN(C)C)c1 (centres unmarked) : 54
CN(C)C[C@H]1CCCC[C@]1(O)c1cccc(O)c1 : 54

====

Experiment: Pharmacokinetics of tramadol and O-desmethyl tramadol in SD rats with or without crizotinib
Conditions: male, Sprague-Dawley, rat, serum, po, 20 mg/kg, Cmax, Group B: 20 mg/kg tramadol with crizotinib 45 mg/kg single dose
QUANTITY_MEASURED: Cmax

CN(C)C[C@H]1CCCC[C@]1(O)c1cccc(O)c1 [O-desmethyl tramadol] : 172 ng/mL
COc1cccc(C2(O)CCCCC2CN(C)C)c1 (centres unmarked) [Tramadol, tramadol] : 245 ng/mL

====

Assay: Pharmacokinetics of tramadol and O-desmethyl tramadol in SD rats with or without crizotinib
Settings: male, Sprague-Dawley, rat, serum, po, 20 mg/kg, Tmax, Group B: 20 mg/kg tramadol with crizotinib 45 mg/kg single dose
Excerpt: Ultra-performance liquid chromatography-tandem mass spectrometry (UPLC-MS/MS) was utilized to measure the concentration of both tramadol and O-desmethyl tramadol. Separation was achieved using a Waters Acquity UPLC BEH C18 column, with dimensions of 2.1 mm × 50 mm and 1.7-µm particle size (Waters Corp., Milford, MA, USA), and quantitation was completed using a Waters XEVO TQD triple quadruple mass spectrometer. […]
Listed below: Tmax values for each entry.
QUANTITY_MEASURED: Tmax (min)

CN(C)C[C@H]1CCCC[C@]1(O)c1cccc(O)c1 [O-desmethyl tramadol] : 42
COc1cccc(C2(O)CCCCC2CN(C)C)c1 (centres unmarked) [Tramadol, tramadol] : 36

====

Tested on: tramadol metabolism (O-desmethyl tramadol production) in rat liver microsomes
Experiment: Liver microsomal incubation assay: inhibition of tramadol metabolism (O-desmethyl tramadol production) in RLM
Type: in vitro ADME
Details: rat, pH 7.4; RLM; tramadol 60 µM; crizotinib 0.01-100 µM
QUANTITY_MEASURED: IC50 at 30 min (µM)

C[C@@H](Oc1cc(-c2cnn(C3CCNCC3)c2)cnc1N)c1c(Cl)ccc(F)c1Cl : 8.74

====

Assay: Pharmacokinetics of tramadol and O-desmethyl tramadol in SD rats with or without crizotinib
Conditions: male, Sprague-Dawley, rat, serum, po, 20 mg/kg, CLz/F, Group C: 0.5% CMC-Na for 7 days, then single 20 mg/kg tramadol
QUANTITY_MEASURED: CL/F (mL/min/kg)

COc1cccc(C2(O)CCCCC2CN(C)C)c1 (centres unmarked) : 459
CN(C)C[C@H]1CCCC[C@]1(O)c1cccc(O)c1 : 288

====

Assay: Pharmacokinetics of tramadol and O-desmethyl tramadol in SD rats with or without crizotinib
Settings: male, Sprague-Dawley, rat, serum, po, 20 mg/kg, t1/2z, Group A: single oral 20 mg/kg tramadol alone
QUANTITY_MEASURED: half-life

COc1cccc(C2(O)CCCCC2CN(C)C)c1 (centres unmarked) [Tramadol, tramadol] : 4.22 h
CN(C)C[C@H]1CCCC[C@]1(O)c1cccc(O)c1 [O-desmethyl tramadol] : 2.93 h

====

Listed below: CL/F values for each entry.
Experiment: Pharmacokinetics of tramadol and O-desmethyl tramadol in SD rats with or without crizotinib
Settings: male, Sprague-Dawley, rat, serum, po, 20 mg/kg, CLz/F, Group A: single oral 20 mg/kg tramadol alone
QUANTITY_MEASURED: CL/F (mL/min/kg)

CN(C)C[C@H]1CCCC[C@]1(O)c1cccc(O)c1 [O-desmethyl tramadol] : 360
COc1cccc(C2(O)CCCCC2CN(C)C)c1 (centres unmarked) [Tramadol, tramadol] : 440

====

Test system: tramadol metabolism (O-desmethyl tramadol production) in rat liver microsomes
Assay: Liver microsomal incubation assay: inhibition of tramadol metabolism (O-desmethyl tramadol production) in RLM
Assay type: in vitro ADME
Settings: rat, pH 7.4, RLM; 100 µM of each drug; tramadol 60 µM; vs control group; read-out: inhibitory rate on tramadol metabolism (production of O-desmethyl tramadol)
QUANTITY_MEASURED: inhibition at 30 min, 100 µM (%)

C[C@@H](Oc1cc(-c2cnn(C3CCNCC3)c2)cnc1N)c1c(Cl)ccc(F)c1Cl : 97.2

====

Assay: Pharmacokinetics of tramadol and O-desmethyl tramadol in SD rats with or without crizotinib
Details: male, Sprague-Dawley, rat, serum, po, 20 mg/kg, AUC(0−∞), Group D: crizotinib 45 mg/kg for 7 days, then single 20 mg/kg tramadol
QUANTITY_MEASURED: AUC(0-inf) (ng·h/mL)

CN(C)C[C@H]1CCCC[C@]1(O)c1cccc(O)c1 : 1250
COc1cccc(C2(O)CCCCC2CN(C)C)c1 (centres unmarked) : 1650

====

Assay: Pharmacokinetics of tramadol and O-desmethyl tramadol in SD rats with or without crizotinib
Settings: male, Sprague-Dawley, rat, serum, po, 20 mg/kg, AUC(0−∞), Group B: 20 mg/kg tramadol with crizotinib 45 mg/kg single dose
Source text: Ultra-performance liquid chromatography-tandem mass spectrometry (UPLC-MS/MS) was utilized to measure the concentration of both tramadol and O-desmethyl tramadol. Separation was achieved using a Waters Acquity UPLC BEH C18 column, with dimensions of 2.1 mm × 50 mm and 1.7-µm particle size (Waters Corp., Milford, MA, USA), and quantitation was completed using a Waters XEVO TQD triple quadruple mass spectrometer. […]
QUANTITY_MEASURED: AUC(0-inf) (ng·h/mL)

CN(C)C[C@H]1CCCC[C@]1(O)c1cccc(O)c1 : 981
COc1cccc(C2(O)CCCCC2CN(C)C)c1 (centres unmarked) : 1220

====

Experiment: Pharmacokinetics of tramadol and O-desmethyl tramadol in SD rats with or without crizotinib
Details: male, Sprague-Dawley, rat, serum, po, 20 mg/kg, Tmax, Group A: single oral 20 mg/kg tramadol alone
Listed below: Tmax values for each entry.
QUANTITY_MEASURED: Tmax (min)

COc1cccc(C2(O)CCCCC2CN(C)C)c1 (centres unmarked) [Tramadol, tramadol] : 30
CN(C)C[C@H]1CCCC[C@]1(O)c1cccc(O)c1 [O-desmethyl tramadol] : 48

====

Assay: Pharmacokinetics of tramadol and O-desmethyl tramadol in SD rats with or without crizotinib
Details: male, Sprague-Dawley, rat, serum, po, 20 mg/kg, AUC(0−t), Group D: crizotinib 45 mg/kg for 7 days, then single 20 mg/kg tramadol
QUANTITY_MEASURED: AUC(0-t) (ng·h/mL)

CN(C)C[C@H]1CCCC[C@]1(O)c1cccc(O)c1 : 1230
COc1cccc(C2(O)CCCCC2CN(C)C)c1 (centres unmarked) : 1650

====

Test: Pharmacokinetics of tramadol and O-desmethyl tramadol in SD rats with or without crizotinib
Settings: male, Sprague-Dawley, rat, serum, po, 20 mg/kg, Tmax, Group C: 0.5% CMC-Na for 7 days, then single 20 mg/kg tramadol
Listed below: Tmax values for each entry.
QUANTITY_MEASURED: Tmax

COc1cccc(C2(O)CCCCC2CN(C)C)c1 (centres unmarked) : 1.6 h
CN(C)C[C@H]1CCCC[C@]1(O)c1cccc(O)c1 : 1.2 h

Cited source: paper PMC11144398
